assay_explanation: inhibitors of MT1-MMP promoter transcription, cell-based, luciferase reporter, luminescence (AID 618);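 also: actives suppress MT1-MMP promoter-driven transcription so potencies describe inhibitors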
study_conditions: MT1-MMP promoter luciferase reporter cells
The campaign covered roughly 87,000 compounds. About 540 (0.62%) were called active. No rule for the calls is given here. The sample holds actives, similar compounds and a random draw of the others, so the mix is not that of the screen. Results with a measured potency or affinity are listed apart.
Tick one outcome: true (active), false (inactive)

Some solved cases for reference:
{"columns": ["molecule", "class_assignment"],
 "data": [
  ["Cc1ccc(C)c(C(=O)CN2C(=O)c3ccccc3S2(=O)=O)c1", "false"],
  ["Cc1cc(/C=N/n2cnnc2)c(C)n1-c1ccc(OCc2ccc(Cl)cc2)cc1", "false"],
  ["Cc1cc(Nc2ccccc2N2CCOCC2)n2ncnc2n1", "false"],
  ["Cc1cc(C(=O)CSc2nnnn2-c2ccccc2)c(C)n1CC1CCCO1 (stereo not drawn)", "false"]
]}

Exercise: For this molecule, state the assay outcome: O=C(Nc1ccc2c(c1)OCO2)C(c1ccccc1)N1CCN(C(=O)c2ccco2)CC1 (stereo not drawn)
Key: false

Exercise: Hi, do you know how CCOC(=O)CCn1c(=O)c2c(nc(Br)n2Cc2ccccc2)n(C)c1=O came out in this test?
Key: false

Exercise: Given O=C1/C(=C/c2ccccc2)CCCc2ccccc21 , state the outcome it received in this test.
Key: false

Exercise: Assay result, entry O=c1ccc2ccc(OCc3nnc(-c4ccccc4Br)o3)cc2o1 — outcome?
Key: false

Exercise: Outcome logged for COc1ccc(C2C(=O)N(C3CCCCC3)CC(=O)N2Cc2ccc3c(c2)OCO3)cc1 (stereo not drawn) in this assay:
Key: false

Exercise: What call does the record list for Cc1cc(C(=O)Cn2nnc(-c3ccc(Cl)cc3)n2)c(C)n1CC1CCCO1 (stereo not drawn) ?
Key: false

Exercise: Write down the call the test reported for this molecule. Item: O=C(c1cccs1)N1CCN(S(=O)(=O)N2CCCCC2)CC1
Key: false
